Test system: C57BL/KsJ db/db mouse
Assay: Actions of lowering plasma glucose, insulin and triglyceride in vivo in db/db mice
Settings: 30 mg/kg orally once a day for 14 days, blood two hours after administration on 14th day
Where a name gives a salt, the structure may show the parent alone.
Catalogue of Reduction rate of plasma triglyceride readings, one per entry.
# print the numeric value only

O=C(O)C(Cl)(Cl)CCCCCCCCC(O)Cc1ccc(Cl)cc1 (stereo not shown) ... 54.1

Missing value: Reduction rate of plasma triglyceride, C57BL/KsJ db/db mouse, entry CCc1ccc(CCOc2ccc(CC3SC(=O)NC3=O)cc2)nc1 (stereo not shown) [Pioglitazone hydrochloride, reference compound] . Fill in? 38.2

Missing value: Reduction rate of plasma triglyceride, C57BL/KsJ db/db mouse, entry O=C(O)C(Cl)(Cl)CCCCCCCCCC(O)c1ccc(Cl)cc1 (stereo not shown) . Fill in? 25.8

Missing value: Reduction rate of plasma triglyceride, C57BL/KsJ db/db mouse, entry O=C(O)C(Cl)(Cl)CCCCCCCC(O)CCc1ccc(Cl)cc1 (stereo not shown) . Fill in? 55.7

---

Catalogue of Reduction rate of plasma insulin readings, one per entry.
Tested on: C57BL/KsJ db/db mouse
Assay: Actions of lowering plasma glucose, insulin and triglyceride in vivo in db/db mice
Conditions: 10 mg/kg orally once a day for 14 days, blood two hours after administration on 14th day
Counter-ions that a name gives are not always drawn.
# print the numeric value only

Here are 3 molecules together with their reported answers.
O=C(O)C(Cl)(Cl)CCCCCCCCCC(O)c1ccc(Cl)cc1 (centres unmarked) ... 39.0
O=C(O)C(Cl)(Cl)CCCCCCCCCCc1ccc(Cl)cc1 ... 10.7
CCc1ccc(CCOc2ccc(CC3SC(=O)NC3=O)cc2)nc1 (centres unmarked) [Pioglitazone hydrochloride, reference compound] ... −18.7

// Reduction rate of plasma insulin lookup, key: O=C(O)C(Cl)(Cl)CCCCCCCCC(O)Cc1ccc(Cl)cc1 (centres unmarked) 20.3

// Reduction rate of plasma insulin lookup, key: O=C(O)C(Cl)(Cl)CCCCCCCC(O)CCc1ccc(Cl)cc1 (centres unmarked) 39.1
